Data credit: ChEMBL document CHEMBL1201862

- Test system: SW-620
- experimentNotes: NCI tumour cell line growth inhibition, 48 h
Activity calls are given as the source filed them. No stated cut-off is given here; in the data, active = GI50 up to about 1.1 µM and inactive = higher.
Respond with a class label; see label 1 (active), label 0 (inactive)

Could you kindly confirm the outcome this assay logged for Cc1ccc(S(=O)(=O)N/N=C2\C(=O)C3CC2C(Cl)C3Cl)cc1 (stereo unspecified) ? label 0

Could you kindly confirm the outcome this assay logged for `O=C(Nc1nn(C(=O)c2cccnc2)c(=O)s1)c1ccc(Cl)cc1` ? label 0

Could you kindly confirm the outcome this assay logged for `C/C(=N/NC(=S)N1CCN(C(=S)N/N=C(/C)c2ccccn2)CC1)c1ccccn1` ? label 0

Could you kindly confirm the outcome this assay logged for `Cc1ccc(Nc2n[nH]c(=S)s2)cc1C` ? label 0

Could you kindly confirm the outcome this assay logged for `CC(C)C[C@H](NC(=O)[C@H](Cc1ccccc1)NC(=O)CCc1ccccc1)B(O)O` ? label 1

Could you kindly confirm the outcome this assay logged for `CN(C)CCNC(=O)c1cccc2nc3cc(Cl)ccc3nc12` ? label 1

---

- Tested on: NCI-H522
- experimentNotes: NCI tumour cell line growth inhibition, 48 h
Activity calls are given as the source filed them. No stated cut-off is given here; in the data, active = GI50 up to about 1.1 µM and inactive = higher.
For each entry below, report its GI50 value.

Return value of GI50 for input `COc1c(O)cc2c(c1O)C(=O)C1=C(CCCC1)C2=O` , no commentary. 13 µM (inactive)

Return value of GI50 for input CC1=NN(c2nc(N)nc(C(C#N)C(=O)c3cc4c(cc3Cl)Sc3nccn3S4(=O)=O)n2)C(C)(C)C1 (configuration not stated) , no commentary. 18.6 µM (inactive)

Return value of GI50 for input C[C@]12C/C(=C/O)C(=O)C(O)=C1CC[C@@H]1C2CC[C@@]2(C)C1CC[C@@H]2O (some centres not stated) , no commentary. 15.6 µM (inactive)

Return value of GI50 for input Cc1cn(CC2=NC3CCCCC3N2)c(=O)[nH]c1=O (configuration not stated) , no commentary. > 100 µM (inactive)

Return value of GI50 for input CCOC(=O)C1(C/C=C\CBr)CCCCCCC1=O (configuration not stated) , no commentary. > 100 µM (inactive)

Return value of GI50 for input `COc1cc2c(cc1OCCCCN1C(=O)c3cccc4cccc(c34)C1=O)N=C[C@@H]1CCCN1C2=O` , no commentary. 1.68 µM (inactive)

Return value of GI50 for input `O=Cc1ccc(-c2cccc([N+](=O)[O-])c2)s1` , no commentary. > 100 µM (inactive)

Return value of GI50 for input COC1OC(CO)C(O)C(NC(=O)N(C)N=O)C1O (configuration not stated) , no commentary. > 100 µM (inactive)

Return value of GI50 for input C=C1C(=O)OC2/C=C(\C)C(O)CC(O)C(C)(O)CC(OC(=O)/C(C)=C/C)C12 (configuration not stated) , no commentary. 28.1 µM (inactive)

Return value of GI50 for input `CNC1(c2cc3ccccc3s2)CCCCC1` , no commentary. 12.7 µM (inactive)

Return value of GI50 for input COc1cc(S(=O)(=O)Nc2ccc(-c3csc(N4C(=O)CSC4c4ccccc4)n3)cc2)ccc1Cl (configuration not stated) , no commentary. 34.4 µM (inactive)

Return value of GI50 for input `N#C/C(=C\c1ccccc1O)C(N)=O` , no commentary. 21.9 µM (inactive)

Return value of GI50 for input `OCc1cc2c(ccc3sc4ccc5sc6ccc7ncccc7c6c5c4c32)s1` , no commentary. 11 µM (inactive)

Return value of GI50 for input `COc1ccc(-c2oc3ccc(C)cc3c(=O)c2O)cc1` , no commentary. > 100 µM (inactive)

Return value of GI50 for input CC(=O)Nc1ccc2[nH]c(C(=O)N3CC(CCl)c4c3cc([N+](=O)[O-])c3ccccc43)cc2c1 (configuration not stated) , no commentary. 1.14 µM (inactive)

Return value of GI50 for input `CCCCCOC(=O)c1cc2cc(CCl)ccc2oc1=O` , no commentary. 0.213 µM (active)

Return value of GI50 for input `Cc1cn2c(/C=C3/C(=O)Nc4cccc(Cl)c43)c(Cl)nc2s1` , no commentary. > 100 µM (inactive)
